Data provenance: patent US7109299

Target: T1, native IL-5R α/β complex on cells (TF-1 cells; human eosinophils) (human, UniProt Q01344 21-420; P32927 17-897)
T1 sequence (looked up) 1: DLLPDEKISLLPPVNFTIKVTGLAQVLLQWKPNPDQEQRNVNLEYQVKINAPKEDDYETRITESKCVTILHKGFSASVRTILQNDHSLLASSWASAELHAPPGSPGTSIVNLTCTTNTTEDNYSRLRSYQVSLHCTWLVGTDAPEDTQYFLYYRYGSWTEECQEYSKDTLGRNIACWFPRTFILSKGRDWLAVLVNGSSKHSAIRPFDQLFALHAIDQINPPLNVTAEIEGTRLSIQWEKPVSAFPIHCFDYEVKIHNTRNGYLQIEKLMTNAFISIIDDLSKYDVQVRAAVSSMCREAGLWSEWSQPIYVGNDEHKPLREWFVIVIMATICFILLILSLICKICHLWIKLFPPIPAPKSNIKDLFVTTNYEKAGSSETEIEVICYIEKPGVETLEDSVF
T1 sequence (looked up) 2: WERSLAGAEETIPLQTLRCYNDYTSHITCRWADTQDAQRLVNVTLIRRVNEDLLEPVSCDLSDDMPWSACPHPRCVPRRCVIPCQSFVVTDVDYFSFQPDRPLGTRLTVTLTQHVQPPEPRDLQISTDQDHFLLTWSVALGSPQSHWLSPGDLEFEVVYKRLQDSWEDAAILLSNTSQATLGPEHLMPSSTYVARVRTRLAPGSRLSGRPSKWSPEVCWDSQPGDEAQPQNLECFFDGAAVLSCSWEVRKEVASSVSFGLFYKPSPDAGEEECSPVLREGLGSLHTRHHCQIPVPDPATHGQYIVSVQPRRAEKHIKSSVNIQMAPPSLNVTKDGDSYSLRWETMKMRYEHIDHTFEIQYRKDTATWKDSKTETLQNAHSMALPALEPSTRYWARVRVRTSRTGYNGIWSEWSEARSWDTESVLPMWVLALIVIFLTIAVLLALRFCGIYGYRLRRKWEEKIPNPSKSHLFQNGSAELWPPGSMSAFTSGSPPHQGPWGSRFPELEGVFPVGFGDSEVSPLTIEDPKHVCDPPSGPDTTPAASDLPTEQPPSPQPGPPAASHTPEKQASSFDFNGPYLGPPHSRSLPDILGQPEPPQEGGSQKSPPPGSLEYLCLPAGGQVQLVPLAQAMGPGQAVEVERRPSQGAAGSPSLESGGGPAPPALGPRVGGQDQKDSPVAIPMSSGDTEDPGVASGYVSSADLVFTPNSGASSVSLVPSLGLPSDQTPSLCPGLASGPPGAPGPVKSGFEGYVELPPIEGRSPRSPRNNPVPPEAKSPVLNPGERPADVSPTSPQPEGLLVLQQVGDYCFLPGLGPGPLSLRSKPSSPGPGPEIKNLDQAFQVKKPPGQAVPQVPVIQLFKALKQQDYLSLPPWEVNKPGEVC
Test: cell-based or functional assay
Bridge positions count the residues as written; N and C are the ends. Square brackets hold non-standard residues; d marks the D form. Ends that are not written are not given here. Ahx = NCCCCCC(=O)O
MEASURED PROPERTY: Microphysiometer pIC50 (block of the TF-1 cell response to IL-5)
Response field accepts a number only; no unit should be typed.

Observe how each entry below is paired with its result.
{"BINDER": "H-EGYVCVEWARCPTCG-NH2 (disulfide (positions not given here); also: dimer, intramolecular and intermolecular disulfide linkages, places not given here) [dimer of (H)-EGYVCVEWARCPTCG-(NH2)]", "RESULT VALUE": 9.1}
{"BINDER": "[Ahx]EGYVCVEWARCPTCR-NH2 (disulfide (positions not given here); also: dimer, intramolecular and intermolecular disulfide linkages, places not given here) [dimer of (Ahx)-EGYVCVEWARCPTCR-(NH2)]", "RESULT VALUE": 9}
{"BINDER": "H-EGYVCVEWARCPTCR-NH2 (disulfide (positions not given here); also: dimer, intramolecular and intermolecular disulfide linkages, places not given here) [dimer of (H)-EGYVCVEWARCPTCR-(NH2)]", "RESULT VALUE": 9.1}

Next, consider the following binder.
Query :: Tell me its Microphysiometer pIC50 (block of the TF-1 cell response to IL-5) given H-TGGGDGYVCVEWARCPTCK-OH (disulfide 15-18; also: homodimer via interchain Cys9-Cys9 disulfide) [AF18748, synthetic dimer of (H)-TGGGDGYVCVEWARCPTCK-(OH)] as the entry.
Result :: 9.6
